Kindly state melting point for each of the entries shown.

QUERY: Requested read-out: melting point. Entry: `C#Cc1cccc(Nc2ncnc3cc(OCCN4CCN(C)CC4)c(OCCOC)cc23)c1.Cl.Cl`
RESULT: 130 to 142 °C (dec.)

QUERY: Requested read-out: melting point. Entry: `C#Cc1cccc(Nc2ncnc3cc(OCCCl)c(OCCOC)cc23)c1.Cl`
RESULT: 225 to 235 °C (dec.)

QUERY: Requested read-out: melting point. Entry: `C#Cc1cccc(Nc2ncnc3cc(OCCOC)c(OCCn4ccc(=O)cc4)cc23)c1.Cl`
RESULT: 155 to 168 °C (dec.)

QUERY: Requested read-out: melting point. Entry: `C#Cc1cccc(Nc2ncnc3cc(OCCOC(C)=O)c(OCCOC)cc23)c1`
RESULT: 134 to 135 °C

QUERY: Requested read-out: melting point. Entry: `C#Cc1cccc(Nc2ncnc3cc(OCCn4ccnc4)c(OCCOC)cc23)c1.Cl.Cl`
RESULT: 220 to 227 °C (dec.)
